Assay: Cmax in Wistar rat at 1 mg/kg, po
Type: ADME, organism-based
Design: dose 1 mg/kg, route oral
Details: in vivo
Catalogue of Cmax values
Reply with the number and its unit after it.

Consider the reported Cmax for these molecules:
# Molecule, Cmax
rows = [
    ("C[S+]([O-])c1ccc(C2=C(c3ccccc3)C(=O)OC2)cc1 (centres undefined)", "334 ng/mL"),
    ("Cc1ccc(-c2ncc(Cl)cc2-c2ccc(S(C)(=O)=O)cc2)cn1", "427 ng/mL"),
    ("CS(=O)(=O)c1ccc(C2=C(c3ccccc3)C(=O)OC2)cc1", "237 ng/mL"),
]

Let us move to another entry and its Cmax.
Input Cc1ccc(-c2ncc(Cl)cc2-c2ccc([S+](C)[O-])cc2)cn1 (centres undefined) , output reported Cmax.
133 ng/mL

* * *

Assay: AUC(0-t) in Wistar rat at 1 mg/kg, po
Format: ADME, organism-based
Set-up: dose 1 mg/kg, route oral
Settings: plasma
Readout: AUC(0-t) (ng·h/mL)
Field: numeric (ng·h/mL). Do not append units.

# Compound, AUC(0-t) (ng·h/mL)
rows = [
    ("Cc1ccc(-c2ncc(Cl)cc2-c2ccc([S+](C)[O-])cc2)cn1 (centres undefined)", 578),
    ("CS(=O)(=O)c1ccc(C2=C(c3ccccc3)C(=O)OC2)cc1", 531),
    ("Cc1ccc(-c2ncc(Cl)cc2-c2ccc(S(C)(=O)=O)cc2)cn1", 1660),
]

Next item in the queue.
Find the measured AUC(0-t) of C[S+]([O-])c1ccc(C2=C(c3ccccc3)C(=O)OC2)cc1 (centres undefined) and report it.
318

Source: ChEMBL document CHEMBL1148495
